Tested on: SK-OV-3
experiment notes: NCI tumour cell line growth inhibition, 48 h
The source made the active and inactive calls. No stated cut-off is given here; in the data, active = GI50 up to about 1.1 µM and inactive = higher.
// classify into active, inactive

O=C1[C@@H]2C(c3ccccc3F)=NO[C@@H]2C(=O)N1c1ccc(Cc2ccc(N3C(=O)[C@H]4C(c5ccccc5F)=NO[C@H]4C3=O)cc2)cc1 ... inactive

[in] Per the records of this test, what outcome belongs to "CCOC(=O)C(C)(C(=O)OCC)/C(Cl)=C\Cl" ?
[out] inactive

[in] Each compound tested received a call. Report the one for "O=C(Cc1ccccc1CCO)NCCc1ccccc1" .
[out] inactive

[in] Tell me the recorded outcome of this test for O=C(NC12CC3CCC1CC(C3)C2)[C@@H]1CCCN1C(=O)OCc1ccccc1 (stereo not given in full) .
[out] inactive

[in] Identify the outcome logged in this assay for the compound shown: NC(=O)NC1C(C(=O)O)N(Cc2ccccc2)C(=O)N1Cc1ccccc1 (stereo not given)
[out] inactive

[in] Field: outcome | Entry: "COc1ccc(-c2cc(C3CC3)nc(SCC(=O)O)c2C#N)cc1"
[out] inactive

[in] # fetch the recorded call for "CNC(=O)OCC1=C(COC(=O)NC)CN(c2ccc(OC)cc2)C1" here
[out] inactive

[in] Assay result, entry "CCNCCNc1c2ccccc2nc2ccccc12" — outcome?
[out] active

[in] Name the outcome recorded for COc1ccc(C(=O)C2CC3(CCC2(O)c2ccc(OC)cc2)CC(=O)Nc2ccccc2C3=O)cc1 (stereo not given) in the assay.
[out] inactive

[in] Just curious, what result did "CSc1nc(C)c(CCCl)c(Cl)n1" get here?
[out] inactive

---

System: SNB-19
experiment notes: NCI tumour cell line growth inhibition, 48 h
Activity calls are given as the source filed them. Rule as the data show it: active = GI50 up to about 1.1 µM and inactive = higher.
Could you please pick one outcome from this set? active, inactive

Solved entries (count: 2):
CCOC(=O)C1=NN(c2ccc(C)cc2)C2=CC(C)=NN(C)C(=S)N21 ... inactive
CC(=O)OCC1OC(Nc2ccc3nc(C)n(-c4cccc(C)c4)c(=O)c3c2)C(OC(C)=O)C(OC(C)=O)C1OC(C)=O (stereo not drawn) ... inactive

[in] What was the test verdict on "COc1cc(Nc2cnc3ccc(C(F)(F)F)cc3n2)cc(OC)c1OC" ?
[out] inactive

---

System: HOP-92
experiment notes: NCI tumour cell line growth inhibition, 48 h
Calls of active or inactive are those of the source. Rule as the data show it: active = GI50 up to about 1.1 µM and inactive = higher.
The compounds listed here are annotated with their GI50.

[in] Report GI50 on HOP-92 for this entry: "CC[C@]12C=CCN3CC[C@@]4(c5cc(Br)c(OC)cc5N(C)[C@H]4[C@@](O)(C(=O)NN)[C@@H]1O)[C@@H]32"
[out] > 100 µM (inactive)

[in] Specify the recorded GI50 for "O=C1CN(c2ccccc2)Cc2nc(Cl)ccc2N1" , system: HOP-92.
[out] 57.4 µM (inactive)

[in] State recorded GI50 with HOP-92, entry C=C1CC2[C@H](C)C(=O)CCC2(C)C2=C1C1CCC(C(C)CCC(=C)C(C)C(=O)O)C1(C)CC2=O (stereo not given in full) , no comment.
[out] 29.7 µM (inactive)

---

Test system: SK-MEL-28
experiment notes: NCI tumour cell line growth inhibition, 48 h
Calls of active or inactive are those of the source. Rule as the data show it: active = GI50 up to about 1.1 µM and inactive = higher.
# GI50 values compiled below

The cases that follow already have their GI50 on record.
COc1ccc(CNC2=N/C(=C\c3ccccc3Cl)C(=O)N2C)cc1 ... 33 µM (inactive)
COc1ccc2c(c1)CCc1[nH]c3ccccc3c1CCCC2 ... > 10 µM (inactive)
O=Nn1c2ccccc2c2cc([N+](=O)[O-])ccc21 ... 18.5 µM (inactive)

[in] Specify GI50 for "COc1nc(/C=N/NC(N)=S)nc(OC)n1" , system SK-MEL-28.
[out] > 100 µM (inactive)

[in] Fill in GI50 for COc1cc([N+](=O)[O-])ccc1N1C(=O)C2c3[nH]c4ccccc4c3C3CCC(C(C)(C)C)CC3C2C1=O (stereo unspecified) tested with SK-MEL-28.
[out] 9.12 µM (inactive)

[in] Write down the reported GI50 (system: SK-MEL-28) of "Nc1nnc2c(-c3ccccc3)n[nH]c2n1"
[out] 91.6 µM (inactive)

---

Test system: HOP-62
experiment notes: NCI tumour cell line growth inhibition, 48 h
Activity calls are given as the source filed them. Rule as the data show it: active = GI50 up to about 1.1 µM and inactive = higher.
Item-by-item account of GI50

Observe how each entry below is paired with its result.
O=C1CSC(=S)N1/N=C/c1ccc(Cl)c([N+](=O)[O-])c1 ... 30.6 µM (inactive)
N/C(=N\O)N/N=C\c1ccc(O)c(O)c1O ... > 41.1 µM (inactive)
COc1ccc(-c2cc(C3CC3)nc(SCC(=O)O)c2C#N)cc1 ... > 100 µM (inactive)
C1=Cc2nc1c(-c1ccccc1)c1nc(c(-c3ccccc3)c3ccc([nH]3)c(-c3ccccc3)c3ccc([nH]3)c2-c2ccccc2)C=C1 ... > 100 µM (inactive)
CC(=O)Nc1nc(NC(C)=O)c2nc(CO)[nH]c2n1 ... > 100 µM (inactive)
COc1ccc(N[S+]([O-])c2cccc(C)c2)cc1 (stereo not given) ... 64 µM (inactive)

[in] Given "NC(=S)Nc1c(S(N)(=O)=O)cc(S(N)(=O)=O)c(Cl)c1Cl" , report its GI50 on HOP-62.
[out] > 100 µM (inactive)

[in] Lab note: HOP-62 assay, enter GI50 for "Nc1ccn([C@@H]2C[C@H](CO)[C@@H](O)[C@H]2O)c(=O)n1" here
[out] > 57.7 µM (inactive)

[in] System HOP-62. Read-out GI50. Item "CCOC(=O)c1nc2ccc(C(F)(F)F)cc2[nH]c1=O" . Report value.
[out] > 100 µM (inactive)

[in] Check HOP-62 data and give GI50 for "CCOC(=O)C=C1CCN(C(=O)c2ccccc2)CC1" .
[out] > 100 µM (inactive)

---

System: IGROV-1
experiment notes: NCI tumour cell line growth inhibition, 48 h
The source made the active and inactive calls. Cut-off read from the data, not from the text of the source: active = GI50 up to about 1.1 µM and inactive = higher.
quantity: GI50

C/C=C1/CN2CCC34c5ccccc5N(C)C23C2CC1C4(C(=O)OC)C(O)O2 (centres undefined) ... > 100 µM (inactive)
COc1ccc(OC)c(-c2cc(C(=O)O)c3cc4ccccc4cc3n2)c1 ... > 100 µM (inactive)
Cc1cccc2c1N(C(=O)/C=C\C(=O)O)C(c1c(C)[nH]c3ccccc13)C2 (centres undefined) ... > 10 µM (inactive)
CN(C)[C@@H]1C(O)=C(C(=O)NCNc2nc3[nH]nnc3c(=O)[nH]2)C(=O)[C@@]2(O)C(O)=C3C(=O)c4c(O)cccc4[C@@](C)(O)[C@H]3C[C@@H]12 ... 15.9 µM (inactive)
OC(CCNCc1ccccc1)c1ccc2ccccc2c1 (centres undefined) ... 16 µM (inactive)
COc1cc(C2c3cc4c(cc3[C@@H](Nc3ccc(Oc5ccccc5)cc3)C3COC(=O)[C@H]23)OCO4)cc(OC)c1O (some centres undefined) ... 4.38 µM (inactive)

[in] Indicate its recorded GI50; the compound in question is CCOC(=O)C1=C(C)NC(=O)N([N+](=O)[O-])C1c1ccccc1C(F)(F)F (centres undefined)
[out] > 100 µM (inactive)

[in] Quickly give me recorded GI50 for "CC1(C)N=C(c2ccccc2)SC12S[C@@H]1CCCC[C@H]1S2"
[out] > 100 µM (inactive)

[in] Give the reported GI50 for this compound. "CC(C)=Cc1cc(C)c2c(O)cc(C)c3c2c1C(C)=C(O)C3=O"
[out] 27.5 µM (inactive)

---

Tested on: UO-31
experiment notes: NCI tumour cell line growth inhibition, 48 h
Active and inactive are the calls of the source. Cut-off read from the data, not from the text of the source: active = GI50 up to about 1.1 µM and inactive = higher.
Measured GI50 values are reported for all entries that follow.

Examples with their reported GI50 follow.
N=C1C(=N)c2ccccc2-c2ccccc21 ... 1.61 µM (inactive)
Cc1ccc(NC(=O)CSc2nnc(-c3ccc(/N=C\c4ccc(Cl)cc4)cc3)o2)cc1 ... > 100 µM (inactive)

[in] Tell me its GI50 on UO-31: "CCOC(=O)C=C1CCN(C(=O)c2ccccc2)CC1"
[out] > 100 µM (inactive)

[in] Provide the reported GI50 (system: UO-31) for "O=C(NC12CC3CC(CC(C3)C1)C2)C(=O)c1c[nH]c2ccc(Br)cc12"
[out] 26.2 µM (inactive)

[in] Provide UO-31 GI50 reading for "Oc1ccccc1/C=N/c1ccc(-c2nc3ccccc3[nH]2)cc1" .
[out] 63.1 µM (inactive)

[in] Fill in: GI50 on UO-31, entry O=S(=O)(C1=CC(S(=O)(=O)c2ccccc2)CN(Cc2ccccc2)C1c1cccc2ccccc12)c1ccccc1 (stereo unspecified)
[out] > 69 µM (inactive)

---

System: COLO 205
experiment notes: NCI tumour cell line growth inhibition, 48 h
Activity calls are given as the source filed them. Cut-off read from the data, not from the text of the source: active = GI50 up to about 1.1 µM and inactive = higher.
quantity: GI50

Cc1cc(N(CCC#N)CCC#N)ccc1/C=C1\N=C(c2cc([N+](=O)[O-])ccc2Cl)N(c2cccc(Cl)c2)C1=O ... 87.7 µM (inactive)
COc1ccc(/C(Cl)=C(\CN(C)C)c2ccc(OC)c(OC)c2)cc1OC ... > 100 µM (inactive)

Query compound follows.
[in] # return GI50 for OC(CCNCc1ccccc1)c1ccc2ccccc2c1 (centres undefined) , test system: COLO 205
[out] 20.7 µM (inactive)
